Origin of values: patent US20250313535A1

- STUDY SYSTEM: α4β7 integrin (Homo sapiens (Human), UniProt P13612+P26010)
- Sequence (P13612 34-1032): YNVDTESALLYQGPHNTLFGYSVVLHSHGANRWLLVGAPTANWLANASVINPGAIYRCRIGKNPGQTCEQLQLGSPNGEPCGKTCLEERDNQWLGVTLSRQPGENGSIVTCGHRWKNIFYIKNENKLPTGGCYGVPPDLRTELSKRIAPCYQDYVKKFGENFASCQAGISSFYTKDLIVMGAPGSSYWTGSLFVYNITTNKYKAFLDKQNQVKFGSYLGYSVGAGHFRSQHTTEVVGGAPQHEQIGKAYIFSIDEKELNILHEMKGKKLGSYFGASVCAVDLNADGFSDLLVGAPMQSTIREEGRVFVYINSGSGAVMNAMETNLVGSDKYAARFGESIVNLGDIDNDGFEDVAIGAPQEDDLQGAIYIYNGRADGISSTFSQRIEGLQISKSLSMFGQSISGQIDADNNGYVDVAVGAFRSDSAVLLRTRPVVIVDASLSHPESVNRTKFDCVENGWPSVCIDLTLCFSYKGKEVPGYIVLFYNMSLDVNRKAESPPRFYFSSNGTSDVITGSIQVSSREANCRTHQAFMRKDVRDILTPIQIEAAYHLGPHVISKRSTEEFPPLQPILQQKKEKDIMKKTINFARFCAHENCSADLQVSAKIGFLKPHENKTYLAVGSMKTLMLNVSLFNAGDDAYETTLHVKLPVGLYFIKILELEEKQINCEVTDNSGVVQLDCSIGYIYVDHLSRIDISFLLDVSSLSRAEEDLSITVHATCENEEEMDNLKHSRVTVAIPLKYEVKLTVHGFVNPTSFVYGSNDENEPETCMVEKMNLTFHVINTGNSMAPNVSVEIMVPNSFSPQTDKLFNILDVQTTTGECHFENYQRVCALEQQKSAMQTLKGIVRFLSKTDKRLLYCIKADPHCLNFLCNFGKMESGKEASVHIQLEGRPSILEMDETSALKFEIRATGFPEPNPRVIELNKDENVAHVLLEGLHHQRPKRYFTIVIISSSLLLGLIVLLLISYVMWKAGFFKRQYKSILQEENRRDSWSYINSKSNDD
- Sequence (P26010 20-798): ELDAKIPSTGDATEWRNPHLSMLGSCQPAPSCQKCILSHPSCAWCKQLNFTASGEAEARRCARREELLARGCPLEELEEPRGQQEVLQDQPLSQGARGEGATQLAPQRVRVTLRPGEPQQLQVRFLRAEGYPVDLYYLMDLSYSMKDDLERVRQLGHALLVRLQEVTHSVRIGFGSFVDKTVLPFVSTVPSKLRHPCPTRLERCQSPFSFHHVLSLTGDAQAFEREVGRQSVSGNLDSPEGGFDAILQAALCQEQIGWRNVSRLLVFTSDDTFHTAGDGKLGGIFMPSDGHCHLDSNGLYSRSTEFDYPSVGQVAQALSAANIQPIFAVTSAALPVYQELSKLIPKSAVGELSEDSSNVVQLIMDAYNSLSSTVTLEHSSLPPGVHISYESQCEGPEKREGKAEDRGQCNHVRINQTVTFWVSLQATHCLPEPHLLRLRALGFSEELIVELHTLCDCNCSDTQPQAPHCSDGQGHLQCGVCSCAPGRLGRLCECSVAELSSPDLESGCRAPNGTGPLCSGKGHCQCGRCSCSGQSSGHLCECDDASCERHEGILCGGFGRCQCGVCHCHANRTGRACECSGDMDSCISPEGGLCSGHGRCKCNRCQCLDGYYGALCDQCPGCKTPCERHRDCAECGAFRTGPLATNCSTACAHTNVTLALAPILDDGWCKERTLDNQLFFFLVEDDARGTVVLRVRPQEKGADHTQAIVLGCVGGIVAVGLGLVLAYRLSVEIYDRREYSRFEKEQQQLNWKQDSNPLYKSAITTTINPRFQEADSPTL
- TEST NAME: Integrin Adhesion Assay: Protocol 4 (MAdCAM-coated plate, RPMI-8866 cells with stable LOF mutation of the ITGB1 gene)
- Assay type: cell-based
- EXPERIMENTAL CONDITIONS: Protocol 4; RPMI-8866 cells with LOF mutation of ITGB1, MAdCAM; read-out: Mean IC50 α4β7 KO
Items are presented alongside their recorded IC50.
PROPERTY LABEL: IC50

COc1cc2c(c(C)c1-c1cccc3c(C[C@H](NC(=O)C4(C(F)(F)F)CCN(CC(F)(F)F)CC4)C(=O)O)cccc13)CN(C)CC2 [Compound 724]; < 10 nM
COc1c2c(cc(C)c1-c1cccc3c(C[C@H](NC(=O)C4(C(F)(F)F)CCN(CC(F)(F)F)CC4)C(=O)O)cccc13)CCN(C)C2 [Compound 735]; < 10 nM
COc1ccc(CN2CCC(F)(F)C2)c(OC)c1-c1cccc2c(C[C@H](NC(=O)C3(C(F)(F)F)CCN(CC(F)(F)F)CC3)C(=O)O)cccc12 [Compound 783]; 10 to 100 nM
CN1CCc2cc(-c3cccc4c(C[C@H](NC(=O)C5(C(F)(F)F)CCN(CC(F)(F)F)CC5)C(=O)O)cccc34)ncc2C1 [Compound 754]; 10 to 100 nM
O=C(O)[C@H](Cc1cccc2c(-c3cc(C(F)(F)F)c(CN4CCCCC4)cn3)cccc12)NC(=O)C1(C(F)(F)F)CCN(CC(F)(F)F)CC1 [Compound 891]; 100 to 1000 nM
O=C(O)[C@H](Cc1cccc2c(-c3ncc(CN4CCC(F)(F)CC4)cc3C3CC3)cccc12)NC(=O)C1(C(F)(F)F)CCN(CC(F)F)CC1 [Compound 951]; < 10 nM

###

- STUDY SYSTEM: α4β1 integrin (Homo sapiens (Human), UniProt P05556+P13612)
- Sequence (P05556 21-798, one chain of several): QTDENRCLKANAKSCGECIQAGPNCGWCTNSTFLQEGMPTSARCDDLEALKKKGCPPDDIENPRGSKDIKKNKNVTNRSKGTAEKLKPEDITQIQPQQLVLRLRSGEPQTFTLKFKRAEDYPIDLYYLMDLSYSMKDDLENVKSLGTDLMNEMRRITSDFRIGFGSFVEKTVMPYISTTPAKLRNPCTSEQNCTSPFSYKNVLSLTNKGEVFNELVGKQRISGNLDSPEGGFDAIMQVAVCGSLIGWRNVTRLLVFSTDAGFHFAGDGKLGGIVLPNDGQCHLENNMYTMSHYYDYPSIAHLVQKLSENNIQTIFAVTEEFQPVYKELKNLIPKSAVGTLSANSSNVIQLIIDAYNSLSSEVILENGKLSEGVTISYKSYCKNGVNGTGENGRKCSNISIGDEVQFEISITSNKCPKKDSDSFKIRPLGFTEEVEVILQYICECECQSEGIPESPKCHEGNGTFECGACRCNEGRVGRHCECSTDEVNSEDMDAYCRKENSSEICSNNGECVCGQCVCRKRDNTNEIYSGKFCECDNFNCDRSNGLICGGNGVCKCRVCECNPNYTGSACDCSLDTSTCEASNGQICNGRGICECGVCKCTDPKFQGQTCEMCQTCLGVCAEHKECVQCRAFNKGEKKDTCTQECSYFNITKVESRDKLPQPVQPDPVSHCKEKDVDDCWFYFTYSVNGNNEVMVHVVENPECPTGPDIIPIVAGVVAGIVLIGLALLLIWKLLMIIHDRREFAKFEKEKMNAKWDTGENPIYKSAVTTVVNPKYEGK
- TEST NAME: Integrin Adhesion Assay: Protocol 5 (VCAM-coated plate, RPMI-8866 cells with stable LOF mutation of the ITGB7 gene)
- Type: cell-based
- EXPERIMENTAL CONDITIONS: Protocol 5; RPMI-8866 cells with LOF mutation of ITGB7, VCAM; read-out: Mean IC50 α4β1 KO
- Source text: Integrin Adhesion Assay Using Genetically Modified Cells Generating Stable Cell Lines with ITGB1 or ITGB7 Knockout (Protocol 4 and Protocol 5) […] To generate an individual clones of cells deficient in either ITGB7 or ITGB1 by limiting dilution assay, the transfected cells were resuspended at 5 cells/mL and seeded in 384 well plates. Outgrowth of clones was monitored using a microscope, and 24 clones were transferred for expansion. […]
Items are presented alongside their recorded IC50.
PROPERTY LABEL: IC50

COc1ccc(CN2CCC(F)(F)CC2)cc1-c1cccc2c(C[C@H](NC(=O)C3(C(F)(F)F)CCN(CC(F)F)CC3)C(=O)O)cccc12; 100 to 1000 nM
O=C(O)[C@H](Cc1cccc2c(-c3cccc4ocnc34)cccc12)NC(=O)C1(C(F)(F)F)CCN(CC(F)(F)F)CC1; > 1000 nM
O=C(O)[C@H](Cc1cccc2c(-c3ncc(CN4CCCCC4)cc3C(F)(F)F)cccc12)NC(=O)C1(C(F)(F)F)CCN(CC(F)(F)F)CC1; > 1000 nM
O=C(O)[C@H](Cc1cccc2c(-c3ncc(CN4CCC[C@H](F)C4)c4ccccc34)cccc12)NC(=O)C1(C(F)(F)F)CCN(CC(F)(F)F)CC1; > 1000 nM
O=C(O)[C@H](Cc1cccc2c(-c3ncc(CN4CCC5(CCC5)C4)c4ccccc34)cccc12)NC(=O)C1(C(F)(F)F)CCN(CC(F)F)CC1; 100 to 1000 nM
COc1cccc(CCN2CCCC(C)(C)C2)c1-c1cccc2c(C[C@H](NC(=O)C3(C(F)(F)F)CCN(CC(F)F)CC3)C(=O)O)cccc12; 100 to 1000 nM
CN1CCC(c2cnc(-c3cccc4c(C[C@H](NC(=O)C5(C(F)(F)F)CCN(CC(F)(F)F)CC5)C(=O)O)cccc34)c(C(F)(F)F)c2)CC1; 100 to 1000 nM
COc1ccc2c(c1-c1cccc3c(C[C@H](NC(=O)C4(C(F)(F)F)CCN(CC(F)(F)F)CC4)C(=O)O)cccc13)CN(CC(F)F)CC2; > 1000 nM
O=C(O)[C@H](Cc1cccc2c(-c3ncc(CN4CCOCC45CC5)c4ccccc34)cccc12)NC(=O)C1(C(F)(F)F)CCN(CC(F)F)CC1; 100 to 1000 nM
COc1cc(CN2CCCCC2)cc(C(F)(F)F)c1-c1cccc2c(C[C@H](NC(=O)C3(C(F)(F)F)CCN(CC(F)(F)F)CC3)C(=O)O)cccc12; > 1000 nM
O=C(O)[C@H](Cc1cccc2c(-c3ncc(CN4CCOC(C(F)(F)F)C4)c4ccccc34)cccc12)NC(=O)C1(C(F)(F)F)CCN(CC(F)F)CC1 (some centres unmarked); > 1000 nM
